Taken from patent US9029536B2.

- Experimental system: Human PDE10A enzyme (Homo sapiens, UniProt Q9Y233)
- Construct: Sf9 or COS-7 cells transfected with the full-length gene; His-tag; made in house; host or cells: Sf9 or COS-7 cells
- Sequence (Q9Y233 267-1055): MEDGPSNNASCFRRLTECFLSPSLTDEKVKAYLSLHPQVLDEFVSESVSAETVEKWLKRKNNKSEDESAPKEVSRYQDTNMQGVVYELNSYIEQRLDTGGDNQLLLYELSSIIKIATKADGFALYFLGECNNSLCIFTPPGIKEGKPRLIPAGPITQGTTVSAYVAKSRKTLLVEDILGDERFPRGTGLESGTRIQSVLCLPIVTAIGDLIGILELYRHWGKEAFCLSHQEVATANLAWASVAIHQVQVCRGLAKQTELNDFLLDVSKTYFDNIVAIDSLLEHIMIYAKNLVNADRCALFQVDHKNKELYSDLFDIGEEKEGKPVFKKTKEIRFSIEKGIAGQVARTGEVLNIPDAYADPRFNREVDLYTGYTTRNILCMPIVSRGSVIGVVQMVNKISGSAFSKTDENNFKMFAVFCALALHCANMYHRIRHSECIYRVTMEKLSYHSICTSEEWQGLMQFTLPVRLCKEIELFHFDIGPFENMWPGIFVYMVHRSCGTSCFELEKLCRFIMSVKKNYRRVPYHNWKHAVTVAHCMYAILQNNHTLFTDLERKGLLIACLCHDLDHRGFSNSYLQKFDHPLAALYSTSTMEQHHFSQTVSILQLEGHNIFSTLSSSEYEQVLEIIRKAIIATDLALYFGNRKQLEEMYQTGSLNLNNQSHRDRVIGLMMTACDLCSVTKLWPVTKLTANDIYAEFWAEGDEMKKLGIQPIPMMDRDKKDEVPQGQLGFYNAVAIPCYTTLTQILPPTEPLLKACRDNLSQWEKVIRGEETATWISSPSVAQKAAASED
- Assay method text: PDE enzyme inhibition (SPA, [3H]cGMP)
- Format: biochemical
- Settings: 1 μM compound, [3H]cGMP substrate
Reported inhibition at 1 µM is given for each of the following compounds.
Assay metric: inhibition at 1 µM (%)

Compound smiles | Assay metric | Measurement units | Result
CCn1nc(-c2ccc(Oc3nc4cccnc4n3C)cc2)c2ncc(F)cc21 | inhibition at 1 µM | % | 101
COCCn1c(Oc2ccc(-c3nn(CC(F)F)c4cc(F)cnc34)cc2)nc2cccnc21 | inhibition at 1 µM | % | 103
CCn1nc(-c2ccc(Oc3nc4ccccc4n3CC(C)(C)O)cc2)c2ncccc21 | inhibition at 1 µM | % | 99
CCn1nc(-c2ccc(C(=O)c3nc4ccccc4n3C)cc2)c2ncccc21 | inhibition at 1 µM | % | 95

###

- Experimental system: Human PDE10A enzyme (Homo sapiens, UniProt Q9Y233)
- Construct: Sf9 or COS-7 cells transfected with the full-length gene; His-tag; made in house; host or cells: Sf9 or COS-7 cells
- Assay method text: PDE enzyme inhibition (SPA, [3H]cGMP)
- Type: biochemical
- Settings: 1 μM compound, [3H]cGMP substrate
Where a name gives a salt, the structure may show the parent alone.
Assay metric: inhibition at 1 µM (%)

Compound | Experimental system | Assay metric | Result
Cn1c(Oc2ccc(-c3nn(CC(F)F)c4cc(F)cnc34)cc2)nc2cccnc21 [Example 51] | Human PDE10A enzyme (Homo sapiens, UniProt Q9Y233) | inhibition at 1 µM | 102
Cn1cc(-c2ccc(Nc3nc4ccccc4o3)cc2)c2ncccc21 [Example 1, hydrochloride] | Human PDE10A enzyme (Homo sapiens, UniProt Q9Y233) | inhibition at 1 µM | 97.6
CCn1nc(-c2ccc(Oc3nc4cccnc4n3C)cc2)c2nccnc21 [Example 28] | Human PDE10A enzyme (Homo sapiens, UniProt Q9Y233) | inhibition at 1 µM | 101
CCn1nc(-c2ccc(Oc3nc4ccccc4n3C)cc2)c2ncccc21 [Example 4] | Human PDE10A enzyme (Homo sapiens, UniProt Q9Y233) | inhibition at 1 µM | 98.7
Cn1c(Oc2ccc(-c3nn(CC(F)F)c4cccnc34)cc2)nc2cccnc21 [Example 39] | Human PDE10A enzyme (Homo sapiens, UniProt Q9Y233) | inhibition at 1 µM | 102
c1ccc2[nH]c(Oc3ccc(-c4c5n(c6cccnc46)CCCC5)cc3)nc2c1 [Example 13] | Human PDE10A enzyme (Homo sapiens, UniProt Q9Y233) | inhibition at 1 µM | 103
